# SYSTEM_NAME: T1, PUF4 RNA-binding domain (Saccharomyces cerevisiae, UniProt P25339 537-888)
# T1 sequence: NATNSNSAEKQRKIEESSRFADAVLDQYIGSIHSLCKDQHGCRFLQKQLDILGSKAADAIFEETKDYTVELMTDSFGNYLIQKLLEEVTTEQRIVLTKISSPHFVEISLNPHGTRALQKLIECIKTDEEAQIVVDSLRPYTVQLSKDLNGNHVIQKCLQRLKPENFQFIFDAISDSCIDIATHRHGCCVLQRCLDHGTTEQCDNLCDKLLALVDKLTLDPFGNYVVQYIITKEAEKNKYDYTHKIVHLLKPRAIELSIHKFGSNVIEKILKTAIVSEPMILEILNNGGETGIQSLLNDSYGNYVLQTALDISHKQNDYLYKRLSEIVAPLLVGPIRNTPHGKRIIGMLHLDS
# EXPERIMENT_SUMMARY: Mg; RNA-MaP; 20 mM Na-HEPES pH 7.4, 30 mM KOAc, 0.75 mM MgCl2, 0.1% Tween-20, 5% glycerol, 0.1 mg/mL BSA, 2 mM DTT; 25 C; 0.0125-409.6 nM protein
# SETTINGS: tags: N-His6-TEV cleaved; C-SNAP kept, Cy3B-labelled; label: tethered on chip by stalled RNA polymerase
Output 1 (yes) for records whose Kd is lower than 20 nM, 0 (no) for records at or above 20 nM.

BINDER	CLASS_NAME
Id_iii_S2_P3E.9_K3.5_C3.3_H3.1_A3.2_F3.2_T3.2_[A10G] (ssRNA) RNA: UUUGAUUAAUAUGAUAUCGUUCUUUCUUCUUGUAAAAAUGUUCUUUCUCGAUAUCAUAUUAAUCUUU	0 (no)
Ic_S2_P5E.1_K5.1_C5.1_H5.1_A5.1_[T6A]_F5.1_[T8A]_[T9A]_T5.1 (ssRNA) RNA: UUUGAUUAAUAUGAUAUCGUUCUUUCUUGUAUAAAAAUUCUUUCUCGAUAUCAUAUUAAUCUUU	0 (no)
UCUCUUUGUAUAUUCCUCUAUCUCUU (ssRNA) [Ie_S1_P4E.1_K4.1_C4.1_H4.1_A4.1_F4.1_[+8CCTCT]_T4.1]	1 (yes)
UCUCUUCUUUUCCUGUAUAUAUAUCUCUU (ssRNA) [Ie_S1_P3E.2_K3.1_C3.2_H3.1_[+1TTCCT]_A3.1_F3.1_T3.2]	1 (yes)
Ie_S2_P4E.1_K4.1_C4.1_H4.1_A4.1_F4.1_[+9TTC]_T4.1 (ssRNA) RNA: UUUGAUUAAUAUGAUAUCGUUCUUUCUUGUAUAUUAUUCUUCUUUCUCGAUAUCAUAUUAAUCUUU	1 (yes)
UCUCUUGCUAUAUUAUCUCUU (ssRNA) [Ib_S1_P4E.1_K4.1_C4.1_H4.1_[T1G]_[G2C]_A4.1_F4.1_T4.1]	0 (no)
Ib_S2_P5E.1_K5.1_C5.1_H5.1_[G2A]_A5.1_[T5G]_F5.1_T5.1 (ssRNA) RNA: UUUGAUUAAUAUGAUAUCGUUCUUUCUUAUAGUAUUAUUCUUUCUCGAUAUCAUAUUAAUCUUU	0 (no)
UCUCUUACUAUAUAUACCUCUCUU (ssRNA) [Id_ii_S1_P3E.3_K3.2_C3.2_[C-2A]_[T-1C]_H3.2_A3.1_F3.1_T3.2_[T9C]_[A10C]]	0 (no)
UCUCUUAAACACUUAUUACGUCUCUU (ssRNA) [Id_ii_S1_P5E.4_K5.3_C5.2_[C-2A]_[T-1A]_H5.3_A5.1_F5.1_T5.2_[T11C]_[A12G]]	0 (no)
ACAAACGCACACUAUUACUACAAAC (ssRNA) [Id_ii_S3_P4E.4_K4.3_C4.2_[C-2G]_[T-1C]_H4.3_A4.1_F4.1_T4.2_[G10C]]	0 (no)
UCUCUUCUUGUUUCCUAUAUAUAUCUCUU (ssRNA) [Ie_S1_P3E.2_K3.1_C3.2_H3.1_[+3TTCCT]_A3.1_F3.1_T3.2]	0 (no)
UCUCUUUUAAUAUAUCUCUU (ssRNA) [Ib_S1_P3E.1_K3.1_C3.1_H3.1_[G2T]_[T3A]_A3.1_F3.1_T3.1]	0 (no)
UCUCUUUGUACUUCGUCUCUU (ssRNA) [Ic_S1_P4E.1_K4.1_C4.1_H4.1_A4.1_[T5C]_[A6T]_F4.1_[T8C]_[A9G]_T4.1]	0 (no)
UCUCUUUGUAACUUGUUCUCUU (ssRNA) [Ic_S1_P5E.1_K5.1_C5.1_H5.1_A5.1_[T5A]_[T6C]_[A7T]_F5.1_[T9G]_[A10T]_T5.1]	0 (no)
ACAAACACUAUAUAUUACUACAAAC (ssRNA) [Id_ii_S3_P4E.3_K4.2_C4.2_[C-2A]_[T-1C]_H4.2_A4.1_F4.1_T4.2_[G10C]]	1 (yes)
UCUCUUACUGUAUAUAUAUCUCUU (ssRNA) [Id_i_S1_P3E.2_K3.1_C3.2_[C-2A]_[T-1C]_H3.1_A3.1_F3.1_T3.2]	1 (yes)
UCUCUUAAACACUAUAUAUCUCUU (ssRNA) [Id_i_S1_P3E.4_K3.3_C3.2_[C-2A]_[T-1A]_H3.3_A3.1_F3.1_T3.2]	0 (no)
Id_i_S2_P3E.6_K3.2_C3.3_[T-3A]_[C-2A]_[T-1C]_H3.2_A3.1_F3.1_T3.2 (ssRNA) RNA: UUUGAUUAAUAUGAUAUCGUUCUUUCUAACUAUAUAUAUAUUCUUUCUCGAUAUCAUAUUAAUCUUU	0 (no)
Ib_S2_P5E.1_K5.1_C5.1_H5.1_A5.1_[T5C]_F5.1_[A10C]_T5.1 (ssRNA) RNA: UUUGAUUAAUAUGAUAUCGUUCUUUCUUGUACUAUUCUUCUUUCUCGAUAUCAUAUUAAUCUUU	1 (yes)
Ie_S2_P4E.1_K4.1_C4.1_H4.1_A4.1_[+7CC]_F4.1_T4.1 (ssRNA) RNA: UUUGAUUAAUAUGAUAUCGUUCUUUCUUGUAUAUCCUAUUCUUUCUCGAUAUCAUAUUAAUCUUU	1 (yes)
ACAAACGAACACUAUAACACAAAC (ssRNA) [Id_ii_S3_P3E.4_K3.3_C3.2_[C-2G]_[T-1A]_H3.3_A3.1_F3.1_T3.2_[T9A]_[A10C]]	0 (no)
UCUCUUGUUAUAUAUUAGUUCUCUU (ssRNA) [Id_ii_S1_P4E.3_K4.2_C4.2_[C-2G]_H4.2_A4.1_F4.1_T4.2]	1 (yes)
UCUCUUUGUACUAGUAUCUCUU (ssRNA) [Ib_S1_P5E.1_K5.1_C5.1_H5.1_A5.1_[T5C]_F5.1_[T8G]_T5.1]	0 (no)
Id_ii_S2_P5E.2_K5.1_C5.2_[C-2A]_H5.1_A5.1_F5.1_T5.2_[T11A]_[A12C] (ssRNA) RNA: UUUGAUUAAUAUGAUAUCGUUCUUUCUAUUGUAUUAUUAACUUCUUUCUCGAUAUCAUAUUAAUCUUU	1 (yes)
Ic_S4_P5E.1_K5.1_C5.1_H5.1_A5.1_[T5C]_[T6A]_[A7T]_F5.1_[T8G]_[A10G]_T5.1 (ssRNA) RNA: UUUGACAACUGAUCGUUCUUUCUUGUACAUGUGUUCUUUCUCGAUCAGUUGUCUUU	0 (no)

Sourced from paper PMC9352680
